- Test system: Leishmania infantum
- PROTOCOL_DETAILS: Antileishmanial activity against amastigote form of Leishmania infantum MCAN_UY_2015_mCO8 isolate assessed as decrease in parasite viability measured after 72 hrs by resazurin assay
- Type: functional, organism-based
MEASURED_ENDPOINT: pIC50
Answers are plain numbers, as −log10 of the molar value.

Ask: So what does the record say about pIC50 for MEGLUMINE ANTIMONATE ?
Reply: 4.29
